- method_notes: Clinical study #1: PK of edaravone oral formulation (formula #1), fasted vs 30 min after high-fat meal
- Assay type: in vivo
- condition_context: male, human, plasma, 200 mg, 200 mg oral, formula #1, 30 min after high-fat meal, mean (n = 5)
assay_metric: Cmax (ng/mL)
Quick reminder: number only, in ng/mL, skip the unit.

Respond only with Cmax recorded for CC1=NN(c2ccccc2)C(=O)C1 899

---

- method_notes: Clinical study #3: PK of edaravone oral formulation (formula #3), fasted vs after high-fat, standard or light meal; analysis of variance
- Format: in vivo, human
- condition_context: male, human, plasma, po, 105 mg, 105 mg oral, formula #3, fasted, mean (n = 16); read-out: AUC0-∞
assay_metric: AUC(0-inf)
# output: numeric value plus its unit

Respond only with AUC(0-inf) recorded for CC1=NN(c2ccccc2)C(=O)C1 2160 ng·h/mL
